tested on: C. haemulonii complex; assay: Planktonic growth, overall across all nine isolates; type: cell-based, Candida haemulonii complex; conditions: geometric mean across all nine strains
property_label: Overall GM-MIC

{"molecule": "CCO.CCO.O=C([O-])c1ccc(C(=O)[O-])cc1.O=C([O-])c1ccc(C(=O)[O-])cc1.[Cu+2].[Cu+2].c1cnc2c(c1)ccc1cccnc12.c1cnc2c(c1)ccc1cccnc12.c1cnc2c(c1)ccc1cccnc12.c1cnc2c(c1)ccc1cccnc12", "target_under_test": "C. haemulonii complex", "Overall GM-MIC": "> 32 µg/mL"}
{"molecule": "CCO.O.O.O.O.O.O.O=C([O-])c1cccc(C(=O)[O-])c1.[Cu+2].c1cnc2c(c1)ccc1cccnc12.c1cnc2c(c1)ccc1cccnc12 [compound 3, [Cu(isoph)(phen)2].6H2O.EtOH]", "target_under_test": "C. haemulonii complex", "Overall GM-MIC": "6.86 µg/mL"}
{"molecule": "CCO.CCO.O.O.O.O=C([O-])c1ccccc1C(=O)[O-].[Cu+2].c1cnc2c(c1)ccc1cccnc12.c1cnc2c(c1)ccc1cccnc12 [compound 2, [Cu(ph)(phen)2].3H2O.2EtOH]", "target_under_test": "C. haemulonii complex", "Overall GM-MIC": "> 32 µg/mL"}
{"molecule": "O=[N+]([O-])[O-].[Ag+] [AgNO3, reference compound]", "target_under_test": "C. haemulonii complex", "Overall GM-MIC": "0.63 µg/mL"}
{"molecule": "O.O.O.O.O.O.O.O.O.O.O.O.O.O.O.O.O=C([O-])c1cccc(C(=O)[O-])c1.O=C([O-])c1cccc(C(=O)[O-])c1.[Mn+2].[Mn+2].c1cnc2c(c1)ccc1cccnc12.c1cnc2c(c1)ccc1cccnc12.c1cnc2c(c1)ccc1cccnc12.c1cnc2c(c1)ccc1cccnc12.c1cnc2c(c1)ccc1cccnc12 [compound 11, {[Mn(phen)2(H2O)2]}2(isoph)2(phen).12H2O]", "target_under_test": "C. haemulonii complex", "Overall GM-MIC": "2.52 µg/mL"}
{"molecule": "[Cl][Mn][Cl] [MnCl2, reference compound]", "target_under_test": "C. haemulonii complex", "Overall GM-MIC": "> 32 µg/mL"}

Task item: Recall and state the measured Overall GM-MIC for CCO.O=C([O-])COCCOCCOCC(=O)[O-].[Ag+].[Ag+].c1cnc2c(c1)ccc1cccnc12.c1cnc2c(c1)ccc1cccnc12.c1cnc2c(c1)ccc1cccnc12.c1cnc2c(c1)ccc1cccnc12 [compound 16, [Ag2(3,6,9-tdda)(phen)4].EtOH] .
Reply: 1 µg/mL

Task item: Give recorded Overall GM-MIC. [Ag+].[O-][Cl+3]([O-])([O-])[O-].c1cnc2c(c1)ccc1cccnc12.c1cnc2c(c1)ccc1cccnc12 [compound 17, [Ag(phen)2]ClO4]
Reply: 1 µg/mL

Task item: Tell me its Overall GM-MIC given O.O.O=C([O-])c1ccccc1C(=O)[O-].[Cu+2].c1cnc2c(c1)ccc1cccnc12 [compound 1, [Cu(ph)(phen)(H2O)2]] as the entry.
Reply: > 32 µg/mL

Task item: Provide only the value of recorded Overall GM-MIC for O=C1C(=O)c2cccnc2-c2ncccc21.O=C1C(=O)c2cccnc2-c2ncccc21.[Ag+].[O-][Cl+3]([O-])([O-])[O-] [compound 15, [Ag(phendione)2]ClO4]
Reply: 1.36 µg/mL

Task item: Note Overall GM-MIC for the molecule shown: CCO.O=C([O-])CCCCCCC(=O)[O-].[Cu+2].[Cu+2].[O-][Cl+3]([O-])([O-])[O-].[O-][Cl+3]([O-])([O-])[O-].c1cnc2c(c1)ccc1cccnc12.c1cnc2c(c1)ccc1cccnc12.c1cnc2c(c1)ccc1cccnc12.c1cnc2c(c1)ccc1cccnc12 [compound 5, [Cu2(oda)(phen)4](ClO4)2.2.76H2O.EtOH]
Reply: 9.33 µg/mL

Task item: Complete the entry with Overall GM-MIC for `O.O.O.O.O.O.O=C([O-])CCCCCCC(=O)[O-].O=C([O-])CCCCCCC(=O)[O-].O=C([O-])CCCCCCC(=O)[O-].O=C([O-])CCCCCCC(=O)[O-].[Mn+2].[Mn+2].[Mn+2].[Mn+2].c1cnc2c(c1)ccc1cccnc12.c1cnc2c(c1)ccc1cccnc12.c1cnc2c(c1)ccc1cccnc12.c1cnc2c(c1)ccc1cccnc12.c1cnc2c(c1)ccc1cccnc12.c1cnc2c(c1)ccc1cccnc12.c1cnc2c(c1)ccc1cccnc12.c1cnc2c(c1)ccc1cccnc12`
Reply: 2.16 µg/mL

----------
# maps each entry to its MIC
system: C. haemulonii complex; experiment: Planktonic growth, overall across all nine isolates; assay type: cell-based, Candida haemulonii complex; conditions: geometric mean across all nine strains, in μM; read-out: Overall GM-MIC

Below, each entry is followed by its recorded MIC result.
{"compound": "[Ag+].[O-][Cl+3]([O-])([O-])[O-].c1cnc2c(c1)ccc1cccnc12.c1cnc2c(c1)ccc1cccnc12 [compound 17, [Ag(phen)2]ClO4]", "MIC": "1.76 µM"}
{"compound": "O=[N+]([O-])[O-].[Ag+] [AgNO3, reference compound]", "MIC": "3.93 µM"}
{"compound": "CCO.O=C([O-])CCCCCCC(=O)[O-].[Cu+2].[Cu+2].[O-][Cl+3]([O-])([O-])[O-].[O-][Cl+3]([O-])([O-])[O-].c1cnc2c(c1)ccc1cccnc12.c1cnc2c(c1)ccc1cccnc12.c1cnc2c(c1)ccc1cccnc12.c1cnc2c(c1)ccc1cccnc12 [compound 5, [Cu2(oda)(phen)4](ClO4)2.2.76H2O.EtOH]", "MIC": "7.09 µM"}
{"compound": "O.O.O=C([O-])c1ccccc1C(=O)[O-].[Mn+2].c1cnc2c(c1)ccc1cccnc12 [compound 8, [Mn(ph)(phen)(H2O)2]]", "MIC": "10.71 µM"}

Task item: Specify reported MIC for the compound shown: O=C1C(=O)c2cccnc2-c2ncccc21.O=C1C(=O)c2cccnc2-c2ncccc21.[Ag+].[O-][Cl+3]([O-])([O-])[O-] [compound 15, [Ag(phendione)2]ClO4]
Reply: 2.16 µM

Task item: Provide one value: measured MIC of O.O.O.O=C([O-])CCCCCCCCCC(=O)[O-].[Ag+].[Ag+].c1cnc2c(c1)ccc1cccnc12.c1cnc2c(c1)ccc1cccnc12.c1cnc2c(c1)ccc1cccnc12 [compound 18, [Ag2(phen)3(udda)].3H2O]
Reply: 0.26 µM

Task item: Identify measured MIC associated with O.O.O.O.O.O=C([O-])c1ccc(C(=O)[O-])cc1.[Mn+2].c1cnc2c(c1)ccc1cccnc12.c1cnc2c(c1)ccc1cccnc12 [compound 12, [Mn(tereph)(phen)2].5H2O]
Reply: 5.96 µM

Task item: Could you please provide reported MIC for O.O.O.O.O.O=C([O-])c1ccccc1C(=O)[O-].[Mn+2].c1cnc2c(c1)ccc1cccnc12.c1cnc2c(c1)ccc1cccnc12 [compound 9, [Mn(ph)(phen)2(H2O)].4H2O] ? Thanks!
Reply: 2.98 µM

Task item: Give reported MIC value for O.O.O.O.O.O.O.O.O.O.O.O.O.O.O.O.O=C([O-])c1cccc(C(=O)[O-])c1.O=C([O-])c1cccc(C(=O)[O-])c1.[Mn+2].[Mn+2].c1cnc2c(c1)ccc1cccnc12.c1cnc2c(c1)ccc1cccnc12.c1cnc2c(c1)ccc1cccnc12.c1cnc2c(c1)ccc1cccnc12.c1cnc2c(c1)ccc1cccnc12 [compound 11, {[Mn(phen)2(H2O)2]}2(isoph)2(phen).12H2O]
Reply: 1.54 µM

----------
Test system: Candida haemulonii var. vulnera
Assay: Planktonic growth, broth microdilution (CLSI M27-A3), MIC
Format: cell-based
Conditions: isolate LIP Ch9; planktonic, 48 h, 37°C
Excerpt: Three clinical isolates of each species that form the C. haemulonii complex were used in this study: C. haemulonii (LIPCh4 from finger nail, LIPCh7 from toe nail, and LIPCh12 from blood), C. duobushaemulonii (LIPCh1 from finger nail, LIPCh6 from toe nail, and LIPCh8 from blood) and C. haemulonii var. vulnera (LIPCh5 from toe nail, LIPCh9 from urine, and LIPCh11 from blood) (Ramos et al., [2015]). […]
Listing: MIC of selected compounds
Write it as a number; the unit µg/mL goes unstated.

{"compound": "O.O.O.O=C([O-])CCCCCCCCCC(=O)[O-].[Ag+].[Ag+].c1cnc2c(c1)ccc1cccnc12.c1cnc2c(c1)ccc1cccnc12.c1cnc2c(c1)ccc1cccnc12 [compound 18, [Ag2(phen)3(udda)].3H2O]", "MIC / µg/mL": 0.125}

Task item: Name the recorded MIC of the item O.O.O=C([O-])c1ccccc1C(=O)[O-].[Mn+2].c1cnc2c(c1)ccc1cccnc12 [compound 8, [Mn(ph)(phen)(H2O)2]] in your answer.
Reply: 4

Task item: Query MIC for O.O.O.O.O=C1C(=O)c2cccnc2-c2ncccc21.O=C1C(=O)c2cccnc2-c2ncccc21.O=C1C(=O)c2cccnc2-c2ncccc21.[Cu+2].[O-][Cl+3]([O-])([O-])[O-].[O-][Cl+3]([O-])([O-])[O-] [compound 6, [Cu(phendione)3](ClO4)2.4H2O]
Reply: 8

Task item: Indicate the recorded MIC value for this compound: O.O.O.O.O.O.O.O.O.O.O.O.O.O.O.O.O=C([O-])c1cccc(C(=O)[O-])c1.O=C([O-])c1cccc(C(=O)[O-])c1.[Mn+2].[Mn+2].c1cnc2c(c1)ccc1cccnc12.c1cnc2c(c1)ccc1cccnc12.c1cnc2c(c1)ccc1cccnc12.c1cnc2c(c1)ccc1cccnc12.c1cnc2c(c1)ccc1cccnc12 [compound 11, {[Mn(phen)2(H2O)2]}2(isoph)2(phen).12H2O]
Reply: 2

Task item: Quick one: give measured MIC for O=C1C(=O)c2cccnc2-c2ncccc21.O=C1C(=O)c2cccnc2-c2ncccc21.[Ag+].[O-][Cl+3]([O-])([O-])[O-] [compound 15, [Ag(phendione)2]ClO4]
Reply: 1

Task item: State, in one line, measured MIC of CCO.O.O.O.O.O.O.O=C([O-])c1cccc(C(=O)[O-])c1.[Cu+2].c1cnc2c(c1)ccc1cccnc12.c1cnc2c(c1)ccc1cccnc12 [compound 3, [Cu(isoph)(phen)2].6H2O.EtOH]
Reply: 8

Task item: Name the recorded MIC of the item CCO.O=C([O-])COCCOCCOCC(=O)[O-].[Ag+].[Ag+].c1cnc2c(c1)ccc1cccnc12.c1cnc2c(c1)ccc1cccnc12.c1cnc2c(c1)ccc1cccnc12.c1cnc2c(c1)ccc1cccnc12 [compound 16, [Ag2(3,6,9-tdda)(phen)4].EtOH] in your answer.
Reply: 0.5
